Experiment: self-splicing fitness, log relative to wild type (ln ratio); higher = more splicing; Tetrahymena group I intron in knt gene, E. coli kanamycin selection, DiMSum; sequences stand for … in CUCUCU…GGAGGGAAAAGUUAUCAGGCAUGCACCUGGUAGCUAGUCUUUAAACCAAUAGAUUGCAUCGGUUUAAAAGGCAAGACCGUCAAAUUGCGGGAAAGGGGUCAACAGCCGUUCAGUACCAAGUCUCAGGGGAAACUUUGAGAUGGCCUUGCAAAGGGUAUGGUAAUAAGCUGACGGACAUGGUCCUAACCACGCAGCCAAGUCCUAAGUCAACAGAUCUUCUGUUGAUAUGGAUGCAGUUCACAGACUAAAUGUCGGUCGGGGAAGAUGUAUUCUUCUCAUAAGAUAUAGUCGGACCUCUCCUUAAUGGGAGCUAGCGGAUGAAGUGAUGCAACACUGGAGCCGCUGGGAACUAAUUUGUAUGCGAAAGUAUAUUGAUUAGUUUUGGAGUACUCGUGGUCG;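 further: selection with 25 µg/mL kanamycin versus none on LB agar overnight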
Conditions: 37 °C
Mark Criterion met for reported self-splicing fitness (ln) of -1 or greater; mark Criterion not met for anything smaller.

Take a look at these entries with their results.
Q) Form field: self-splicing fitness (ln) at least -1? Entry: UGUUAGCAAUAUUACGUUUG
A) Criterion not met

Q) Item AUGAAGCAAUAUUACGCGUG with self-splicing fitness (ln) of -1 or above?
A) Criterion met

Q) Assess whether reported self-splicing fitness (ln) for ACUGAGCAAUAUUACGCGAA sits at -1 or higher.
A) Criterion not met

***
Q) Has AAAGAGCAAUAUUACGAGCU a recorded self-splicing fitness (ln) greater than or equal to -1?
A) Criterion not met

Q) Decide: self-splicing fitness (ln) of GUCUAGCAAUAUUACGAUCC >= -1?
A) Criterion met

Q) Could you tell me if the measured self-splicing fitness (ln) of AGACAGCAAUAUUACGUCAA reaches -1 or more?
A) Criterion not met

Q) Hi, just wondering whether UUAAAGCAAUAUUACGUAAU shows self-splicing fitness (ln) of -1 or higher.
A) Criterion not met

Q) Reported self-splicing fitness (ln) at or above -1? GCGAAGCAAUAUUACGGAUU
A) Criterion not met
